# TARGET_OF_ASSAY: T1, Human EphA2 (Ecto), C-terminal polyHis (Human, UniProt P29317 24-537)
# T1 construct: extracellular domain; also called EPH receptor A2; ephrin type-A receptor 2
# METHOD: fluorescence polarisation competition; competitor fluorescent Compound 66
Starred links: 1 amine or outer side, 2 acyl side, 3 side chain; linkers in the order of their positions; H or OH if unused. Positions of bridges follow the written chain, without caps; N, C: chain ends. Non-standard residues stand in square brackets, D forms with d. Primed or numbered codes have the meaning given here. No end group written: not given here. TBMB′ = 1,3,5-tris(bromomethyl)benzene, 1,3,5-tris(methylene)benzene core, three thioethers to Cys; 1Nal = N[C@@H](Cc1cccc2ccccc12)C(=O)O; TBMB = c1c(C[*:1])cc(C[*:3])cc1C[*:2]; Hyp = O=C(O)[C@@H]1C[C@@H](O)CN1; Aib = CC(C)(N)C(=O)O; Sar = CNCC(=O)O
Kindly apply the following: 1.0 if Ki is less than 30 nM, 0.0 in every other case.

Worked set:
>>> category_label("[Sar][Sar]ACPWG[Aib]FWCPVNRPGC (linker 4-11-18 via TBMB′, also called Compound 80) [Bicycle Compound Number 80 (TBMB scaffold)]")
0.0
>>> category_label("[Sar][Sar]ACP[1Nal]GPFWCPVNRP[dA]C (linker 4-11-18 via TBMB) [Bicycle Compound Number 116 (TBMB scaffold)]")
1.0
>>> category_label("[Sar][Sar]ACPWGPFWCPVNR[Hyp]GC (linker 4-11-18 via TBMB) [Bicycle Compound Number 107 (TBMB scaffold)]")
0.0

Exercise: Take the binder ACRVSPEYCPFGPSWCA (linker 2-9-16 via TBMB, also called Compound 36) [Bicycle Compound Number 36 (TBMB scaffold)] and say whether its Ki is less than 30 nM.
Key: 0.0

Exercise: Lab note: confirm whether the reported Ki for this binder is below 30 nM, equality not counting. binder: [Sar][Sar]ACP[1Nal]G[Aib]FWCPVNRPGC (linker 4-11-18 via TBMB) [Bicycle Compound Number 119 (TBMB scaffold)]
Key: 1.0
